Tested system: T1, sIL-6R (soluble IL-6 receptor; SBH Sciences) (human, UniProt P08887 20-365)
T1 construct: also called human IL-6R
T1 sequence: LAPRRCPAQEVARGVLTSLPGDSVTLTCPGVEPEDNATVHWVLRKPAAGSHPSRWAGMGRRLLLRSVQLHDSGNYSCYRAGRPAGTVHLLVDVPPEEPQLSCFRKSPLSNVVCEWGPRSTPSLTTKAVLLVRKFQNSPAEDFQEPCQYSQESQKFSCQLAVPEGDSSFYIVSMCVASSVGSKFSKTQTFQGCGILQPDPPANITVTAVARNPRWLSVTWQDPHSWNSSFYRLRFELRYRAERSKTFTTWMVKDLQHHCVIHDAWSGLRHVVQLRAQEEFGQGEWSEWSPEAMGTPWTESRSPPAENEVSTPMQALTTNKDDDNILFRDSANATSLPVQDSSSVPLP
Method notes: SPR (BIAcore 3000), antibody on chip, sIL-6R analyte, 25 C
Quick reference: koff of the listed items.
Provide the reading as a plain figure in s⁻¹.

247# (antibody, human IgG1, kappa, V domains shown, also called Sample # 247) VH: QVQLQESGPGLVRPSQTLSLTCTVSGYSITSDHAWSWVRQPPGRGLEWIGYISYSGMTTYNPSLKSRVTMLRDTSKNQFSLRLSSVTAADTAVYYCARCLARMTAMDYWGQGSLVTVSS VL: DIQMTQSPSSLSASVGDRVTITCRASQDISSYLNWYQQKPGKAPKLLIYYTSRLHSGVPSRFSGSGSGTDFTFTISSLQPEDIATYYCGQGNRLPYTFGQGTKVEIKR ... 3.54e-05

We next turn to a different binder, shown below.
**Q:** Please give the documented koff of 250# (antibody, human IgG1, kappa, V domains shown, also called Sample # 250) VH: QVQLQESGPGLVRPSQTLSLTCTVSGYSITSDHAWSWVRQPPGRGLEWIGYISYSGMTTYNPSLKSRVTMLRDTSKNQFSLRLSSVTAADTAVYYCARSLARITAMDYWGQGSLVTVSS VL: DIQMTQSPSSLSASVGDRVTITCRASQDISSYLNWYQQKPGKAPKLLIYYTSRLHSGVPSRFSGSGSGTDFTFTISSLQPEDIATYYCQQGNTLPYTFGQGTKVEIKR
**A:** 9.27e-05
